The origin of these recorded values is patent US20240025908A1.

ASSAY TARGET: ALK (G1202R) (Homo sapiens (Human), UniProt Q9UM73, G1202R)
Sequence (Q9UM73 19-1620 G1202R): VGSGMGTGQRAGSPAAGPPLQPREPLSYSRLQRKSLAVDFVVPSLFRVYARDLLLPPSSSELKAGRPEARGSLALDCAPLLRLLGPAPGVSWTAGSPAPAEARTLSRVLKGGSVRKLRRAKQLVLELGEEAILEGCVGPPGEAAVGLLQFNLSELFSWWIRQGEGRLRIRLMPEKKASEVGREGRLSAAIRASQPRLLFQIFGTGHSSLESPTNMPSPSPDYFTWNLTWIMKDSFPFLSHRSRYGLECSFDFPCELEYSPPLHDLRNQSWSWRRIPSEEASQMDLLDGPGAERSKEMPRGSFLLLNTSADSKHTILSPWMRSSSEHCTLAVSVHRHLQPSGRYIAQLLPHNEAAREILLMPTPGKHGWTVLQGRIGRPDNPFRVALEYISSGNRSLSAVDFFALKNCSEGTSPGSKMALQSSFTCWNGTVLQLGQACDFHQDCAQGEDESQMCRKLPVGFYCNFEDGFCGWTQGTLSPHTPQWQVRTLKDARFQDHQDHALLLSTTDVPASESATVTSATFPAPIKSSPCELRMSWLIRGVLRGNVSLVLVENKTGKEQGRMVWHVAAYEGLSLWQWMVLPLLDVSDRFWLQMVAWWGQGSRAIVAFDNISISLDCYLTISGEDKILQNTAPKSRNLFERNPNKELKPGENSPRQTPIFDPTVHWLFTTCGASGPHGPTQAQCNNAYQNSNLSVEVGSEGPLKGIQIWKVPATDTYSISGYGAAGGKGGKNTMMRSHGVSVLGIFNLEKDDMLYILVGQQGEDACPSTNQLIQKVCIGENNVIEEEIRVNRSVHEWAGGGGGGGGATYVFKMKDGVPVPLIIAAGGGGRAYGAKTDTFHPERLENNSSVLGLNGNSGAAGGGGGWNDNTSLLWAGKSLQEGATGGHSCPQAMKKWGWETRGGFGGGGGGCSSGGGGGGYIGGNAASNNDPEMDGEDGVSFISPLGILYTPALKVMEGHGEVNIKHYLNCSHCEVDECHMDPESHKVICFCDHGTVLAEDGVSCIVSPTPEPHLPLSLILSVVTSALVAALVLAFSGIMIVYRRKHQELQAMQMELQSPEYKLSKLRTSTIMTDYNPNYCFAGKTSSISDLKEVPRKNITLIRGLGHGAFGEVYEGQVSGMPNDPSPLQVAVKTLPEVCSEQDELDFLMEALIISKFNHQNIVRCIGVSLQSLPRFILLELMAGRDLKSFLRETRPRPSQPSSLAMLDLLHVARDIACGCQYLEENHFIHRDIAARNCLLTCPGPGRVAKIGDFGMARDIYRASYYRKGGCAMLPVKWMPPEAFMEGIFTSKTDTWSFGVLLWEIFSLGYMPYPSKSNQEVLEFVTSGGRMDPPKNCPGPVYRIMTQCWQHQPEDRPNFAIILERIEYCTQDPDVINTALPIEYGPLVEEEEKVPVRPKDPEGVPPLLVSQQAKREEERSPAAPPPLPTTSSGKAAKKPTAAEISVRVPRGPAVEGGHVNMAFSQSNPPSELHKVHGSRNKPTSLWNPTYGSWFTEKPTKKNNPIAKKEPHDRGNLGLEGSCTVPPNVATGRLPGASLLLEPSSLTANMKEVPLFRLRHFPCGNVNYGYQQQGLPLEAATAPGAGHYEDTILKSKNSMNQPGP
ASSAY NOTES: Radio-tagged HotSpot kinase assay, ALK (G1202R)
Type: biochemical
Attribute: IC50

>  <COMPOUND>
C[C@@H](Nc1ccn2ncc(C3=NN=CC(C)(C)N3)c2n1)c1cc(F)cc(F)c1F [Example 5]

>  <ASSAY TARGET>
ALK (G1202R) (Homo sapiens (Human), UniProt Q9UM73, G1202R)

>  <IC50>
5 to 50 nM

$$$$
>  <COMPOUND>
C[C@@H](Nc1ccn2ncc(C3=NOCC(C)(C)N3)c2n1)c1cc(F)ccc1OC(F)F [Example 16]

>  <ASSAY TARGET>
ALK (G1202R) (Homo sapiens (Human), UniProt Q9UM73, G1202R)

>  <IC50>
50 to 500 nM

$$$$
>  <COMPOUND>
C[C@@H](Nc1ccn2ncc(C3=NC(=O)C(C)(C)N3)c2n1)c1cc(F)cnc1OCC(F)(F)F [Example 23]

>  <ASSAY TARGET>
ALK (G1202R) (Homo sapiens (Human), UniProt Q9UM73, G1202R)

>  <IC50>
50 to 500 nM

$$$$
>  <COMPOUND>
CCOc1ncc(F)cc1[C@@H](C)Nc1ccn2ncc(C3=NOCCN3)c2n1 [Example 22]

>  <ASSAY TARGET>
ALK (G1202R) (Homo sapiens (Human), UniProt Q9UM73, G1202R)

>  <IC50>
5 to 50 nM

$$$$
>  <COMPOUND>
C[C@@H](Nc1ccn2ncc(C3=NC(=O)C(C)(C)N3)c2n1)c1cc(F)ccc1OC(F)F [Example 6]

>  <ASSAY TARGET>
ALK (G1202R) (Homo sapiens (Human), UniProt Q9UM73, G1202R)

>  <IC50>
5 to 50 nM

$$$$
>  <COMPOUND>
COc1ccc(F)cc1[C@@H](C)Nc1ccn2ncc(C3=NC(=O)C(C)(C)N3)c2n1 [Example 7]

>  <ASSAY TARGET>
ALK (G1202R) (Homo sapiens (Human), UniProt Q9UM73, G1202R)

>  <IC50>
5 to 50 nM

$$$$
>  <COMPOUND>
C[C@@H](Nc1ccn2ncc(C3=NOCCN3)c2n1)c1cc(F)ccc1OC(F)F [Example 9]

>  <ASSAY TARGET>
ALK (G1202R) (Homo sapiens (Human), UniProt Q9UM73, G1202R)

>  <IC50>
5 to 50 nM

$$$$

---

ASSAY TARGET: TRKA (G677C) (Homo sapiens, UniProt P04629, G667C)
Sequence (P04629 33-796 G667C limits assumed): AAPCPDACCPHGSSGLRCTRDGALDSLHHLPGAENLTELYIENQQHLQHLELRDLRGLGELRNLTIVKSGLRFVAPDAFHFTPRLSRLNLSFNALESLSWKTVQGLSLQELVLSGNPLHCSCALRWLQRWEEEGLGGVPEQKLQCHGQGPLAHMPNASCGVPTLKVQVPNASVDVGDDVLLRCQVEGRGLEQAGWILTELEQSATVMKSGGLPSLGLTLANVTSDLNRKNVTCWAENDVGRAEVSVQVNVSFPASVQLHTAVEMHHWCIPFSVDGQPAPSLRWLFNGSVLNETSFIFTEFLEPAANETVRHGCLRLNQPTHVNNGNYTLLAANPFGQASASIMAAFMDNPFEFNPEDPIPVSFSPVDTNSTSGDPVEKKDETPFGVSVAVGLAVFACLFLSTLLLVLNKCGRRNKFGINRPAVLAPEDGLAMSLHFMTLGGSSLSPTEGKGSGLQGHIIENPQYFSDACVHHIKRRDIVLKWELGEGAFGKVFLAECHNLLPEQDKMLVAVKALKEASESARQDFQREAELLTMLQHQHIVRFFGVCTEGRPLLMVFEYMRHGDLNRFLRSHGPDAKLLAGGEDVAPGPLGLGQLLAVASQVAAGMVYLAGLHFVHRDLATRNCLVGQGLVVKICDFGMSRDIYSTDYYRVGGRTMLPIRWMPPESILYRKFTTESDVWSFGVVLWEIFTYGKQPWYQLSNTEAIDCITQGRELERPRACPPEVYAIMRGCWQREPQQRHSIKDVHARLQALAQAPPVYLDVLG
ASSAY NOTES: Radio-tagged HotSpot kinase assay, TRKA (G677C)
Type: biochemical
pIC50: −log10 of the molar value.
ATTRIBUTE MEASURED: pIC50

>  <COMPOUND>
C[C@@H](Nc1ccn2ncc(C3=NOCCN3)c2n1)c1cc(F)ccc1OC(F)(F)F [Example 26]

>  <ATTRIBUTE MEASURED>
pIC50

>  <MEASURED RESULT>
8.30 to 9.30

$$$$

---

ASSAY TARGET: TRKA (G677C) (Homo sapiens, UniProt P04629, G667C)
ASSAY NOTES: Radio-tagged HotSpot kinase assay, TRKA (G677C)
Format: biochemical
MEASUREMENT PARAMETERS: read-out: TRKA (G677C) (IC50/nM)

>  <GIVEN SMILES>
COc1c(F)cc(F)cc1[C@@H](C)Nc1ccn2ncc(NC3=NC(C)(C)CO3)c2n1

>  <IC50>
5 to 50 nM

$$$$
>  <GIVEN SMILES>
C[C@@H](Nc1ccn2ncc(C(=O)NOCCO)c2n1)c1cc(F)cc(F)c1F

>  <IC50>
50 to 500 nM

$$$$
>  <GIVEN SMILES>
COc1ccc(F)cc1[C@@H](C)Nc1ccn2ncc(NC3=NC(C)(C)CO3)c2n1

>  <IC50>
0.5 to 5 nM

$$$$
>  <GIVEN SMILES>
COc1ccc(F)cc1[C@@H](C)Nc1ccn2ncc(OC3=NC(C)(C)CN3)c2n1

>  <IC50>
5 to 50 nM

$$$$
>  <GIVEN SMILES>
COc1c(F)cc(F)cc1[C@@H](C)Nc1ccn2ncc(C3=NC(=O)C(C)(C)N3)c2n1

>  <IC50>
0.5 to 5 nM

$$$$
>  <GIVEN SMILES>
C[C@@H](Nc1ccn2ncc(C3=NOCCN3)c2n1)c1cc(F)cc(C(F)(F)F)c1F

>  <IC50>
5 to 50 nM

$$$$
>  <GIVEN SMILES>
C[C@@H](Nc1ccn2ncc(C3=NOCCN3)c2n1)c1cc(F)ccc1OC(F)F

>  <IC50>
< 0.5 nM

$$$$
>  <GIVEN SMILES>
C[C@@H](Nc1ccn2ncc(NC3=NC(C)(C)CO3)c2n1)c1cc(F)cc(F)c1F

>  <IC50>
0.5 to 5 nM

$$$$
>  <GIVEN SMILES>
C[C@@H](Nc1ccn2ncc(C3=NC(=O)C(C)(C)N3)c2n1)c1cc(F)ccc1OC(F)(F)F

>  <IC50>
0.5 to 5 nM

$$$$
>  <GIVEN SMILES>
C[C@@H](Nc1ccn2ncc(C3=NOCCN3)c2n1)c1cc(F)cc(F)c1F

>  <IC50>
< 0.5 nM

$$$$
>  <GIVEN SMILES>
COc1ccc(F)cc1[C@@H](C)Nc1ccn2ncc(C3=NC(=O)C(C)(C)N3)c2n1

>  <IC50>
< 0.5 nM

$$$$
>  <GIVEN SMILES>
COc1ccc(F)cc1[C@@H](C)Nc1ccn2ncc(NC3=NC(C)(C)CN3)c2n1

>  <IC50>
5 to 50 nM

$$$$
>  <GIVEN SMILES>
C[C@@H](Nc1ccn2ncc(C3=NOCC(C)(C)N3)c2n1)c1cc(F)cc(F)c1F

>  <IC50>
0.5 to 5 nM

$$$$
>  <GIVEN SMILES>
C[C@@H](Nc1ccn2ncc(OC3=NCC(C)(C)N3)c2n1)c1cc(F)cc(F)c1F

>  <IC50>
5 to 50 nM

$$$$
>  <GIVEN SMILES>
C[C@@H](Nc1ccn2ncc(C3=NOCCN3)c2n1)c1cc(F)ccc1C(F)(F)F

>  <IC50>
50 to 500 nM

$$$$
>  <GIVEN SMILES>
CONC(=O)c1cnn2ccc(N[C@H](C)c3cc(F)cc(F)c3F)nc12

>  <IC50>
50 to 500 nM

$$$$
>  <GIVEN SMILES>
C[C@@H](Nc1ccn2ncc(C3=NC(=O)C(C)(C)N3)c2n1)c1cc(F)ccc1OC(F)F

>  <IC50>
< 0.5 nM

$$$$

---

System: Ba/F3-TEL-ALK-G1202R
ASSAY NOTES: Inhibition of cell proliferation (CellTiter-Glo), Ba/F3-TEL-ALK-G1202R
Assay type: cell-based
MEASUREMENT PARAMETERS: 72 hours
Entries annotated with measured IC50
ATTRIBUTE MEASURED: IC50 (nM)

>  <GIVEN SMILES>
C[C@@H](Nc1ccn2ncc(C3=NC(=O)C(C)(C)N3)c2n1)c1cc(F)ccc1OC(F)F

>  <MEASURED RESULT>
110

$$$$
>  <GIVEN SMILES>
C[C@@H](Nc1ccn2ncc(C3=NOCCN3)c2n1)c1cc(F)ccc1OC(F)(F)F

>  <MEASURED RESULT>
100

$$$$
>  <GIVEN SMILES>
C[C@@H](Nc1ccn2ncc(C3=NOCCN3)c2n1)c1cc(F)ccc1OC(F)F

>  <MEASURED RESULT>
75.6

$$$$

---

ASSAY TARGET: TRKA (Homo sapiens (Human), UniProt P04629)
Sequence (P04629 33-796): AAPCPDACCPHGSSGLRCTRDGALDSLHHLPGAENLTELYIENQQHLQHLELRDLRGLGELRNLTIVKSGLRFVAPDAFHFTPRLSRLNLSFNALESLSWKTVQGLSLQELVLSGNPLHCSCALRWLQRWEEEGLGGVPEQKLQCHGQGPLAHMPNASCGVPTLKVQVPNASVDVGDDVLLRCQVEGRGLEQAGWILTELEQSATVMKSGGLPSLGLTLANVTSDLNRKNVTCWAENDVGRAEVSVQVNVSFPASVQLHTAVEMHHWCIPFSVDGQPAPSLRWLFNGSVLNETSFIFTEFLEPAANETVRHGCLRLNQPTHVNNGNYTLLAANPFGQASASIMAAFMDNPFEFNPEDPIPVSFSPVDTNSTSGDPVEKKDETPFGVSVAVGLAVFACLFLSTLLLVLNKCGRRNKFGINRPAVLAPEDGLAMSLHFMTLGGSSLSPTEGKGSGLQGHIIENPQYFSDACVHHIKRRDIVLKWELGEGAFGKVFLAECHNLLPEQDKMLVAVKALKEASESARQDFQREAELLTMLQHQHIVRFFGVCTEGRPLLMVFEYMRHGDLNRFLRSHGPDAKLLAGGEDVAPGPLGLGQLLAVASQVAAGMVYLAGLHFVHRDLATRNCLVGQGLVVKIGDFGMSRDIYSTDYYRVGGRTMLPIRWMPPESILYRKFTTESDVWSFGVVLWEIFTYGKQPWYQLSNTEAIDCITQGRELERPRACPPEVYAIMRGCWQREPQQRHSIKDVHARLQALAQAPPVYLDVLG
ASSAY NOTES: Radio-tagged HotSpot kinase assay, TRKA
Assay type: biochemical
# maps each entry to its IC50
ATTRIBUTE MEASURED: IC50

>  <GIVEN SMILES>
COc1ccc(F)cc1[C@@H](C)Nc1ccn2ncc(NC3=NC(C)(C)CN3)c2n1

>  <MEASURED RESULT>
0.5 to 5 nM

$$$$
>  <GIVEN SMILES>
COc1ccc(F)cc1[C@@H](C)Nc1ccn2ncc(OC3=NC(C)(C)CN3)c2n1

>  <MEASURED RESULT>
0.5 to 5 nM

$$$$
>  <GIVEN SMILES>
C[C@@H](Nc1ccn2ncc(C(=O)NOCCO)c2n1)c1cc(F)cc(F)c1F

>  <MEASURED RESULT>
5 to 50 nM

$$$$
>  <GIVEN SMILES>
C[C@@H](Nc1ccn2ncc(NC3=NC(C)(C)CO3)c2n1)c1cc(F)cc(F)c1F

>  <MEASURED RESULT>
0.5 to 5 nM

$$$$
>  <GIVEN SMILES>
COc1ccc(F)cc1[C@@H](C)Nc1ccn2ncc(NC3=NC(C)(C)CO3)c2n1

>  <MEASURED RESULT>
0.5 to 5 nM

$$$$
>  <GIVEN SMILES>
C[C@@H](Nc1ccn2ncc(C3=NC(=O)C(C)(C)N3)c2n1)c1cc(F)cc(F)c1F

>  <MEASURED RESULT>
< 0.5 nM

$$$$
>  <GIVEN SMILES>
C[C@@H](Nc1ccn2ncc(C3=NOCCN3)c2n1)c1cc(F)ccc1OC(F)F

>  <MEASURED RESULT>
< 0.5 nM

$$$$
>  <GIVEN SMILES>
C[C@@H](Nc1ccn2ncc(C3=NC(=O)C(C)(C)N3)c2n1)c1cc(F)ccc1OC(F)F

>  <MEASURED RESULT>
< 0.5 nM

$$$$
>  <GIVEN SMILES>
COc1ncc(F)cc1[C@@H](C)Nc1ccn2ncc(C3=NC(=O)C(C)(C)N3)c2n1

>  <MEASURED RESULT>
< 0.5 nM

$$$$
>  <GIVEN SMILES>
C[C@@H](Nc1ccn2ncc(NC3=NCC(C)(C)N3)c2n1)c1cc(F)cc(F)c1F

>  <MEASURED RESULT>
0.5 to 5 nM

$$$$
>  <GIVEN SMILES>
CCCOC(=O)/N=C(\N)c1cnn2ccc(N[C@H](C)c3cc(F)cc(F)c3F)nc12

>  <MEASURED RESULT>
0.5 to 5 nM

$$$$
>  <GIVEN SMILES>
COc1c(F)cc(F)cc1[C@@H](C)Nc1ccn2ncc(C3=NC(=O)C(C)(C)N3)c2n1

>  <MEASURED RESULT>
< 0.5 nM

$$$$
>  <GIVEN SMILES>
COc1ccc(F)cc1[C@@H](C)Nc1ccn2ncc(C3=NC(=O)C(C)(C)N3)c2n1

>  <MEASURED RESULT>
< 0.5 nM

$$$$
>  <GIVEN SMILES>
C[C@@H](Nc1ccn2ncc(C3=NOCCN3)c2n1)c1cc(F)ccc1OC(F)(F)F

>  <MEASURED RESULT>
< 0.5 nM

$$$$
>  <GIVEN SMILES>
C[C@@H](Nc1ccn2ncc(C3=NN=CC(C)(C)N3)c2n1)c1cc(F)cc(F)c1F

>  <MEASURED RESULT>
0.5 to 5 nM

$$$$
>  <GIVEN SMILES>
C[C@@H](Nc1ccn2ncc(C3=NOCC(C)(C)N3)c2n1)c1cc(F)cc(F)c1F

>  <MEASURED RESULT>
< 0.5 nM

$$$$
>  <GIVEN SMILES>
COc1c(F)cc(F)cc1[C@@H](C)Nc1ccn2ncc(NC3=NC(C)(C)CO3)c2n1

>  <MEASURED RESULT>
0.5 to 5 nM

$$$$
>  <GIVEN SMILES>
C[C@@H](Nc1ccn2ncc(C3=NOCCN3)c2n1)c1cc(F)cc(F)c1F

>  <MEASURED RESULT>
< 0.5 nM

$$$$
>  <GIVEN SMILES>
C[C@@H](Nc1ccn2ncc(C3=NOCCN3)c2n1)c1cc(F)ccc1C(F)F

>  <MEASURED RESULT>
0.5 to 5 nM

$$$$
>  <GIVEN SMILES>
C[C@@H](Nc1ccn2ncc(C3=NOCCN3)c2n1)c1cc(F)ccc1C(F)(F)F

>  <MEASURED RESULT>
0.5 to 5 nM

$$$$
